- system.tested: N-succinyl-diaminopimelate aminotransferase (Escherichia coli)
- experiment.notes: Compound was tested for 50% inhibition of N-Succinyl Diaminopimelic Acid Aminotransferase (DAP-AT) from Escherichia coli.
endpoint.name: IC50 (nM)
Express it in nM; write the number only.

The reported IC50 of the compound CC(=O)N[C@@H](CC(=O)O)C(=O)N[C@@H](CCCC(NN)C(=O)O)C(=O)O (stereo partly specified) was 800
